pIC50: −log10 of the molar value.
Record: pIC50 reported on cyclooxygenase (Ovis aries).
Sequence (P05979 25-600): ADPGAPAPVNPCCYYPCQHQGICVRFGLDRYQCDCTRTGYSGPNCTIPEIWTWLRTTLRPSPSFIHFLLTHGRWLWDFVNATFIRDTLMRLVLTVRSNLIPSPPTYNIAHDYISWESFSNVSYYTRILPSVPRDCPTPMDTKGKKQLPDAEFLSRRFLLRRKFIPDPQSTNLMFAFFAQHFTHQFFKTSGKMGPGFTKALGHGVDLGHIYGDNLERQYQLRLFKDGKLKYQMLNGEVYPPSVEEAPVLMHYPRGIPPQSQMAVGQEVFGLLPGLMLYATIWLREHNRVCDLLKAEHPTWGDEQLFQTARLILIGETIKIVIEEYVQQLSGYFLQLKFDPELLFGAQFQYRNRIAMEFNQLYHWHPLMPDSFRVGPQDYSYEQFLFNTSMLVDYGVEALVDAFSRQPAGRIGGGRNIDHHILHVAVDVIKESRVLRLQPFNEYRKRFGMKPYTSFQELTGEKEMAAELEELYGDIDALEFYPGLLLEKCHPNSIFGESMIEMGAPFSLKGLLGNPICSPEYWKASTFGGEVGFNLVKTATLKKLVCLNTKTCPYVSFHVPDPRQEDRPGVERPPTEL
value-type: pIC50

molecule	measured-target	val
Cc1ccc(C(=O)C=Cc2ccc(O)c(O)c2)c(C)c1 [Example 25]	cyclooxygenase (Ovis aries)	4.39
COc1ccc(C)cc1C(=O)C=Cc1ccc(O)c(O)c1 [Example 11]	cyclooxygenase (Ovis aries)	4.53

A = COc1ccc(O)c(C(=O)C=Cc2ccc(O)c(O)c2)c1 [Example 6]
B = COc1ccc(OC)c(C(=O)/C=C/c2ccc(O)c(O)c2)c1 [Example 1, 2',5'-dimethoxy-3,4-dihydroxychalcone]
C = CCOc1ccc(O)c(C(=O)C=Cc2ccc(O)c(O)c2)c1 [Example 10]
Input line: Please list these molecules in decreasing order of pIC50. # respond with the labels, arranged in the requested order
Output line: B, A, C

###

Record: IC50 reported on cyclooxygenase (Ovis aries).
value-type: IC50 (µM)

Take a look at these entries with their results.
record-smiles	uom	IC50
COc1ccc(C(=O)C=Cc2ccc(O)c(O)c2)c(OC)c1	µM	156
Cc1ccc(C)c(C(=O)C=Cc2ccc(O)c(O)c2)c1	µM	43.7
Cc1cc(C)c(C(=O)C=Cc2ccc(O)c(O)c2)c(C)c1	µM	275

P = COc1ccc(OC(C)C)cc1C(=O)C=Cc1ccc(O)c(O)c1
Q = CCOc1ccc(OC)cc1C(=O)C=Cc1ccc(O)c(O)c1
Input line: Compare P and Q and name the one whose reported IC50 is smaller. Bench note: the answer is the label of the chosen record.
Output line: Q
(Q: 3.2 µM, P: 59.9 µM)

###

system: ear swelling induced by arachidonic acid; assay: topical anti-inflammatory activity test (arachidonic acid-induced ear swelling); assay type: in vivo, male ICR mice; conditions: Mus musculus, 30 μg/ear, 1 hour before 1 mg arachidonic acid, read-out: Ratio of inhibition of ear swelling induced by arachidonic acid
value-type: inhibition in vivo at 30 µg/ear (%)
Quick note: give the figure in %, leave out the unit.

Value of inhibition in vivo at 30 µg/ear reported for the compound O=C(C=Cc1ccc(O)c(O)c1)c1cc(O)ccc1O is 39

Value of inhibition in vivo at 30 µg/ear reported for the compound COc1ccc(C(=O)C=Cc2ccc(O)c(O)c2)c(OC)c1 is 56

Value of inhibition in vivo at 30 µg/ear reported for the compound COc1ccc(C(=O)C=Cc2ccc(O)c(O)c2)c(O)c1 is 35

Value of inhibition in vivo at 30 µg/ear reported for the compound COc1cc(C(=O)C=Cc2ccc(O)c(O)c2)ccc1O is 47

Value of inhibition in vivo at 30 µg/ear reported for the compound COc1ccc(C(=O)C=Cc2ccc(O)c(O)c2)cc1OC is 38

Value of inhibition in vivo at 30 µg/ear reported for the compound COc1ccc(OC(C)C)cc1C(=O)C=Cc1ccc(O)c(O)c1 is 33

Value of inhibition in vivo at 30 µg/ear reported for the compound COc1ccc(OC)c(C(=O)/C=C/c2ccc(O)c(O)c2)c1 [Example 1, 2',5'-dimethoxy-3,4-dihydroxychalcone] is 77

###

test system: ear swelling induced by arachidonic acid; test: topical anti-inflammatory activity test (arachidonic acid-induced ear swelling); assay type: in vivo, male ICR mice; conditions: Mus musculus, 30 μg/ear, 1 hour before 1 mg arachidonic acid, read-out: Ratio of inhibition of ear swelling induced by arachidonic acid
inhibition in vivo at 30 µg/ear reference
Quick note: give the figure in %, leave out the unit.

Take a look at these entries with their results.
compound	value-type	val
Cc1ccc(C(=O)C=Cc2ccc(O)c(O)c2)cc1 [Example 18]	inhibition in vivo at 30 µg/ear	27
COc1cccc(OC)c1C(=O)C=Cc1ccc(O)c(O)c1 [Example 12]	inhibition in vivo at 30 µg/ear	8
COc1ccccc1C(=O)C=Cc1ccc(O)c(O)c1 [Example 19]	inhibition in vivo at 30 µg/ear	42
COc1cccc(C(=O)C=Cc2ccc(O)c(O)c2)c1 [Example 20]	inhibition in vivo at 30 µg/ear	58
COc1cc(C(=O)C=Cc2ccc(O)c(O)c2)cc(OC)c1OC [Example 30]	inhibition in vivo at 30 µg/ear	65
CCOc1ccc(O)c(C(=O)C=Cc2ccc(O)c(O)c2)c1 [Example 10]	inhibition in vivo at 30 µg/ear	43
Cc1cccc(C(=O)C=Cc2ccc(O)c(O)c2)c1 [Example 17]	inhibition in vivo at 30 µg/ear	28
Cc1ccc(C)c(C(=O)C=Cc2ccc(O)c(O)c2)c1 [Example 26]	inhibition in vivo at 30 µg/ear	58
Cc1cc(C)c(C(=O)C=Cc2ccc(O)c(O)c2)c(C)c1 [Example 27]	inhibition in vivo at 30 µg/ear	47
CN(C)c1cccc(C(=O)C=Cc2ccc(O)c(O)c2)c1 [Example 23]	inhibition in vivo at 30 µg/ear	19

Value of inhibition in vivo at 30 µg/ear reported for the compound CC(C)Oc1ccc(C(=O)C=Cc2ccc(O)c(O)c2)cc1 [Example 22] is 5

Value of inhibition in vivo at 30 µg/ear reported for the compound Cc1ccc(C(=O)C=Cc2ccc(O)c(O)c2)c(C)c1 [Example 25] is 43
